These data points were gathered from ChEMBL document CHEMBL4673281.

# Test system: Influenza A virus
# Method notes: Antiviral activity against Influenza A virus (A/Puerto Rico/8/34 (H1N1) infected in MDCK cells assessed as decrease in viral titer preincubated for 1 hr followed by viral infection and cultivated for 48 hrs followed by supernatant transferred to chicken erythrocyte for 1 hr followed by measuring ability to cause positive hemagglutination
# Assay type: functional, organism-based
# Measurement setup: A/Puerto Rico/8/1934(H1N1)
pIC50: −log10 of the molar value.
Readout kind: pIC50

Looking up C[C@@H]1CC[C@@H]2[C@@H](C1)O[C@@H](c1ccc(F)cc1)CC2(C)F (stereo partly drawn) , I found its pIC50 recorded as < 4.44

Per the record, COc1ccc([C@H]2CC(C)(F)[C@@H]3CC[C@@H](C)C[C@H]3O2)cc1O (stereo partly drawn) has pIC50 of < 4.49

response.value for COc1ccc([C@H]2CC(C)(O)[C@@H]3CC[C@@H](C)C[C@H]3O2)cc1 (stereo partly drawn) (field: pIC50) = 4.54

Quick note, pIC50 for COc1cc([C@H]2CC(C)(O)[C@@H]3CC[C@@H](C)C[C@H]3O2)cc(OC)c1O (stereo partly drawn) landed at 3.63

The measured pIC50 associated with COc1ccc([C@H]2CC(C)(O)[C@@H]3CC[C@@H](C)C[C@H]3O2)cc1OC (stereo partly drawn) reads 3.46

Reported pIC50 ( COc1ccc(OC)c([C@H]2CC(C)(F)[C@@H]3CC[C@@H](C)C[C@H]3O2)c1 (stereo partly drawn) ) = < 4.51

What the record says about COc1cc(OC)c([C@H]2CC(C)(O)[C@@H]3CC[C@@H](C)C[C@H]3O2)cc1OC (stereo partly drawn) : pIC50 is < 3.07

Short answer for C[C@@H]1CC[C@@H]2[C@@H](C1)O[C@@H](c1ccccc1O)CC2(C)O (stereo partly drawn) : pIC50 was < 2.96
